Test: in vitro
Details: monkey, vero cells

{"smiles.structure": "Cc1cc(O)c2c(=O)c3c(O)cc(O)c4c5c(O)cc(O)c6c(=O)c7c(O)cc(C)c8c1c2c(c34)c(c78)c65", "MNTC": "1 µg/mL"}
